All figures here come from paper PMC7826789.

Test system: LRRK2;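 also: KINOMEscan scanMAX binding as percent activity remaining versus control; lower means stronger binding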
condition-info: Compound Concentration (nM):1000

[
  {
    "molecule": "COc1cccc(-c2c[nH]c3c(N/N=C/c4ccncc4)ncnc23)c1 [GW814408X]",
    "Percent Control [%]": 100
  },
  {
    "molecule": "NS(=O)(=O)c1ccc(Nc2ncc(-c3ccccc3)o2)cc1 [GW572399X]",
    "Percent Control [%]": 76
  },
  {
    "molecule": "Cl.O=C(O[C@H]1CN[C@H](C#Cc2cc3ncnc(Nc4ccc5c(cnn5Cc5ccccc5)c4)c3s2)C1)N1CCOCC1 [GSK200398A]",
    "Percent Control [%]": 97
  },
  {
    "molecule": "NS(=O)(=O)c1ccc(N/N=C2\\C(=O)Nc3ccc(C(=O)NCCc4c[nH]cn4)cc32)cc1 [GW300660X]",
    "Percent Control [%]": 78
  },
  {
    "molecule": "CCS(=O)(=O)c1ccc(OC)c(Nc2ncc(-c3cccc(OC)c3)o2)c1 [GW580509X]",
    "Percent Control [%]": 100
  },
  {
    "molecule": "CN(C)CCNC(=O)Nc1ccc(N(C)c2ccnc(Nc3ccc(CS(C)(=O)=O)cc3)n2)cc1.Cl [GW830900A]",
    "Percent Control [%]": 83
  },
  {
    "molecule": "COC(=O)Nc1nc2ccc(Oc3ccc(NC(=O)Nc4cc(C(F)(F)F)ccc4F)cc3)cc2s1.Cl [GW693917A]",
    "Percent Control [%]": 39
  },
  {
    "molecule": "Cl.O=C(Nc1ccc(Oc2ccc3[nH]c(NC(=O)c4ccccc4)nc3c2)cc1)Nc1cc(C(F)(F)F)ccc1F [GW709042A]",
    "Percent Control [%]": 39
  }
]
